- runDescription: Chronic reproduction toxicity test (OECD 211) with passive dosing
- Assay type: in vivo, Daphnia magna
- assayContext: Daphnia magna, in vivo, other: waterborne exposure by passive dosing from PDMS disks; 21-day test, 21.8 µg/L (Fig. S8); read-out: % offspring mortality of total offspring
- Method: Chronic toxicity tests with D. magna were performed according to the OECD guideline 211^2 using the passive dosing method. […] The number of offspring per adult and behavioral or physiological effects (e.g., size, movement, unhatched eggs) were recorded daily (except weekends). Dissolved oxygen, pH and temperature were also measured each week. Tests were performed under static conditions (20 °C, 16:8 h light/dark cycle, 1 klux). […] Reproductive inhibition was assessed by counting offspring over 21 days. […]

compound	mortality at 21 days, 21.8 µg/L (%)
c1ccc2c(c1)ccc1[nH]c3ccccc3c12 [BCRB, 7H-benzo[c]carbazole]	2.9
